- Tested on: Escherichia coli
- assay comment: Antibacterial activity was evaluated against Escherichia coli
- Assay type: functional
What Log 1/C was measured for each of the following?
Answers are plain numbers.

CC1CN(c2c(F)cc3c(=O)c(C(=O)O)cn(C4CC4)c3c2Cl)CC(C)N1 (configuration not stated); 7.16
O=C(O)c1cn2c3c(c(N4CCN(C5CC5)CC4)c(F)cc3c1=O)OC1=C2CCC1; 4.15
O=C(O)c1cn2c3c(c(N4CCNCC4)c(F)cc3c1=O)OC=C2COCc1ccccc1; 3.55
O=C(O)c1cn(C2CC2)c2cc(N3CCN(C(CO)(CO)CO)CC3)c(F)cc2c1=O; 5.34

Please supply Log 1/C for each of the following items, keeping them in order.
1. CN1CCN(c2cc3c(c(Cl)c2F)c(=O)c(C(=O)O)cn3C2CC2)CC1
2. CCn1cc(C(=O)O)c(=O)c2cc(F)c(N3CCNCC3)cc21
3. O=C(O)c1cn(C2CC2)c2c(F)c(N3Cc4cccnc4C3)c(F)cc2c1=O

7.1
6.76
6.53

Values from ChEMBL document CHEMBL1148326
